- Read-out: CYP4A11 (gene 1579)
- PROTOCOL SUMMARY: LTEA_HepaRG_CYP4A11: Life Technologies and Expression Analysis (LTEA) Assay for CYP4A11 using HepaRG (AID 2283486)
- CONDITIONS: mRNA level, 48 h; actives raise or lower the signal
Activity calls are given as the source filed them. The calls were made as follows: active = hit-call score of the fitted dose curve at least 0.9, where 1 is the maximum; inactive = score below 0.9.
MEASUREMENT NAME: AC50

Past entries and their recorded results:
Exam item: I'd like to know its AC50. The compound in question is CNC(=O)Oc1cccc2c1OC(C)(C)O2
Marked response: inactive

Exam item: Note, next up: C#CCC1=C(C)C(OC(=O)C2C(C=C(C)C)C2(C)C)CC1=O (centres undefined)
Marked response: 49.8 µM (active)

Exam item: Now the compound CCCCOC(=O)c1ccccc1C(=O)O
Marked response: inactive

Exam item: Likewise for CC(C)N(C(=O)SCC(Cl)=C(Cl)Cl)C(C)C ?
Marked response: inactive

Exam item: Please do the same for FC(F)C(F)(F)OCC(Cn1cncn1)c1ccc(Cl)cc1Cl (centres undefined) as well.
Marked response: 28.8 µM (active)

Count: 6. Required value per item: AC50.
1. CCCOCC(=Nc1ccc(Cl)cc1C(F)(F)F)n1ccnc1
2. CCOP(=O)(SC(C)CC)N1CCSC1=O (centres undefined)
3. CC1=NNC(=O)N(/N=C/c2cccnc2)C1
4. S=C1NCCN1
5. CNC(=O)ON=C(SC)C(=O)N(C)C
6. CCOP(=S)(OCC)Oc1ccc2c(C)c(Cl)c(=O)oc2c1

Marked response:
1. 23 µM (active)
2. 17 µM (active)
3. inactive
4. inactive
5. inactive
6. 50 µM (active)

Look at each compound and report its AC50.
1. CCOP(=S)(OCC)Oc1ccc([N+](=O)[O-])cc1
2. N#CSCSC#N
3. CN1COCN(Cc2cnc(Cl)s2)C1=N[N+](=O)[O-]

Marked response:
1: inactive; 2: 81.5 µM (active); 3: inactive
